In this section we review reported koff values for a set of binders.
Target: T1, recombinant cynomolgus monkey PD-1 expressed with a C-terminal myc-myc-hexahistidine tag (cynomolgus monkey (Macaca fascicularis))
T1 construct: monomeric; also called MfPD-1-MMH
T1 chain: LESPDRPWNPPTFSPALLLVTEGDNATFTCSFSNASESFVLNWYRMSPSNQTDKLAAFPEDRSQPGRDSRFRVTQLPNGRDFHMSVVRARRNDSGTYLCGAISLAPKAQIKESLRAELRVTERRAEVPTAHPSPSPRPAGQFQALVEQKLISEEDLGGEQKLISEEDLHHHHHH
Experiment: SPR, mAb captured, 37C;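 note: rate constants from fitting sensorgrams to a 1:1 binding model, with Kd computed as koff/kon and half-life as ln2/(60·koff), PD-1 flowing over anti-PD-1 antibody surfaces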
API: value field is a number in s⁻¹; no unit string.

Observe how each entry below is paired with its result.
- Binder: "H2aM7791N (antibody, mouse IgG2a, V domains shown, Human variable regions, mouse IgG2a Fc; also called H2M7791N) VH: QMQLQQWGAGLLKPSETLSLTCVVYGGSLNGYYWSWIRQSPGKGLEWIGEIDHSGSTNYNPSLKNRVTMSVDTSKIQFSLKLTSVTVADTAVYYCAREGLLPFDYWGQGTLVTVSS VL: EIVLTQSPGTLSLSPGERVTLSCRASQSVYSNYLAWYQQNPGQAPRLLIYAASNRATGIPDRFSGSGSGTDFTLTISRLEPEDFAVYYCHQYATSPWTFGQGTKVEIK"
  Reported value: 0.00191
- Binder: "H4H7795N2 (antibody, human IgG4 S228P, kappa, V domains shown) VH: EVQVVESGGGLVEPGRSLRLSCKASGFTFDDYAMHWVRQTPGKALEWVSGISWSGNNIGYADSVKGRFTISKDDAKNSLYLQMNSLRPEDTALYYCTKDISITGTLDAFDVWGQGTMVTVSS VL: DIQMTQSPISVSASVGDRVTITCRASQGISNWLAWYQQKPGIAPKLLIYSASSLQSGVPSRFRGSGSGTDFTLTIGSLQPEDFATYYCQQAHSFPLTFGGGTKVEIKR"
  Reported value: 0.00689

Let us examine a further case.
# koff lookup, item H2aM7795N (antibody, mouse IgG2a, V domains shown, Human variable regions, mouse IgG2a Fc; also called H2M7795N) VH: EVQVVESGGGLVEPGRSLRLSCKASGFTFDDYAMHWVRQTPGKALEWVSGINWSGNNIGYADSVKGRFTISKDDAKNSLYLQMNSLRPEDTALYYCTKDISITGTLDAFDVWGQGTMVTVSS VL: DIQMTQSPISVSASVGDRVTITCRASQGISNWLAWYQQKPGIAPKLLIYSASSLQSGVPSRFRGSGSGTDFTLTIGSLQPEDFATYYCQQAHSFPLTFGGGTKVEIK 0.00389

Values from patent US20150203579A1
